- assay protocol: Serum stability assay (RP-HPLC)
- Assay type: in vitro ADME
- experimental context: mouse, time 1 (unit inferred), replicate 2, read-out: Fraction of peptide remaining, Supplementary Figure 5
No end group written: not given here.
property measured: remaining at 1 h, 5 mM

                                  substance       property_measured  result
0  PGLYYFD-NH2 (C-terminus assumed) [Pep70]  remaining at 1 h, 5 mM     84%

* * *

- assay protocol: Serum stability assay (RP-HPLC)
- Type: in vitro ADME
- experimental context: mouse, time 1 (unit inferred), replicate 1, read-out: Fraction of peptide remaining, Supplementary Figure 5
No end group written: not given here.
property measured: remaining at 1 h, 5 mM (%)

                                  substance       property_measured  result
0  PGLYYFD-NH2 (C-terminus assumed) [Pep70]  remaining at 1 h, 5 mM    82.5

* * *

- assay protocol: Serum stability assay (RP-HPLC)
- Assay type: in vitro ADME
- experimental context: mouse, time 3 (unit inferred), replicate 1, read-out: Fraction of peptide remaining, Supplementary Figure 5
No end group written: not given here.
property measured: remaining at 3 h, 5 mM (%)

                                  substance  units_text  result
0  PGLYYFD-NH2 (C-terminus assumed) [Pep70]           %    29.9

* * *

- assay protocol: Serum stability assay (RP-HPLC)
- Assay type: in vitro ADME
- experimental context: mouse, time 2.5 (unit inferred), replicate 1, read-out: Fraction of peptide remaining, Supplementary Figure 5
No end group written: not given here.
property measured: remaining at 2.5 h, 5 mM (%)

>>> df
                                  substance  result
0  PGLYYFD-NH2 (C-terminus assumed) [Pep70]    26.1

* * *

- assay protocol: Serum stability assay (RP-HPLC)
- Type: in vitro ADME
- experimental context: mouse, time 6 (unit inferred), replicate 3, read-out: Fraction of peptide remaining, Supplementary Figure 5
No end group written: not given here.
property measured: remaining at 6 h, 5 mM

>>> df
                                  substance  result
0  PGLYYFD-NH2 (C-terminus assumed) [Pep70]   2.33%

* * *

- assay protocol: Serum stability assay (RP-HPLC)
- Assay type: in vitro ADME
- experimental context: mouse, time 0.5 (unit inferred), replicate 1, read-out: Fraction of peptide remaining, Supplementary Figure 5
No end group written: not given here.
property measured: remaining at 0.5 h, 5 mM (%)

>>> df
                                  substance         property_measured  result
0  PGLYYFD-NH2 (C-terminus assumed) [Pep70]  remaining at 0.5 h, 5 mM    96.7

* * *

- assay protocol: Serum stability assay (RP-HPLC)
- Assay type: in vitro ADME
- experimental context: mouse, time 4 (unit inferred), replicate 1, read-out: Fraction of peptide remaining, Supplementary Figure 5
No end group written: not given here.
property measured: remaining at 4 h, 5 mM (%)

                                  substance       property_measured  result
0  PGLYYFD-NH2 (C-terminus assumed) [Pep70]  remaining at 4 h, 5 mM    23.9
